SYSTEM TESTED: PPAR-α (Homo sapiens)
RUN DESCRIPTION: Scintillation Proximity Assay (SPA), displacement of 3H labeled GW2331
Format: binding
PARTICULARS: PPAR-alpha Ki, 3H GW2331 displacement
READOUT NAME: Ki (nM)

{"COMPOUND": "COc1cccc(-c2nc(CCOc3ccc(CC4(C(=O)O)CCCO4)nc3)c(C)o2)c1 (stereo not shown)", "SYSTEM TESTED": "PPAR-α (Homo sapiens)", "ENDPOINT UNIT": "nM", "NUMERIC VALUE": 1200}

* * *

SYSTEM TESTED: PPAR-γ (Homo sapiens, UniProt P37231)
Sequence (P37231 1-505): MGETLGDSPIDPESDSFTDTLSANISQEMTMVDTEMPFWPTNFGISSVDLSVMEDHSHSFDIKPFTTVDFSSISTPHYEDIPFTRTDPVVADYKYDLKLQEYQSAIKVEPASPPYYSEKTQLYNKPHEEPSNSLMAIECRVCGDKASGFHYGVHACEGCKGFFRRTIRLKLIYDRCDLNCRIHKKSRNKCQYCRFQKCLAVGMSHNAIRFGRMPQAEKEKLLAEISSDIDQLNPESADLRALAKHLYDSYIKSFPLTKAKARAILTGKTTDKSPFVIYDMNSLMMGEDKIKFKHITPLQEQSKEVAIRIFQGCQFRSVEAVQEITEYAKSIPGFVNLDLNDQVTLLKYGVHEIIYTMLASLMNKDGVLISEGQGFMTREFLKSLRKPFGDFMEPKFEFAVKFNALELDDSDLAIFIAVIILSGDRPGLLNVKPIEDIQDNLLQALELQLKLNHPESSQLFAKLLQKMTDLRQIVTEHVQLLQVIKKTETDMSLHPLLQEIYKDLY
RUN DESCRIPTION: Scintillation Proximity Assay (SPA), displacement of 3H labeled darglitazone
Type: binding
PARTICULARS: 3H darglitazone displacement, read-out: PPAR-gamma Ki
# reported Ki; entries follow

{"MOLECULE": "Cc1oc(-c2cccc(Cl)c2)nc1CCOc1ccc(CC2(C(=O)O)CCCO2)cc1 (stereo not shown)", "Ki [nM]": 5}
{"MOLECULE": "COC(Cc1ccc(OCCc2nc(-c3ccc(C(F)(F)F)cc3)oc2C)nc1)C(=O)O (stereo not shown)", "Ki [nM]": 61}
{"MOLECULE": "CCOC(Cc1cccc(CNC(=O)OCc2nc(-c3ccccc3)oc2C)c1)C(=O)O (stereo not shown)", "Ki [nM]": 150}
{"MOLECULE": "CCOC(c1ccc(OCCc2nc(-c3ccccc3)oc2C)nc1)C1(C(=O)O)CCC1 (stereo not shown)", "Ki [nM]": 220}

* * *

SYSTEM TESTED: PPAR-α (Homo sapiens, UniProt Q07869)
Sequence (Q07869 whole entry, species assumed): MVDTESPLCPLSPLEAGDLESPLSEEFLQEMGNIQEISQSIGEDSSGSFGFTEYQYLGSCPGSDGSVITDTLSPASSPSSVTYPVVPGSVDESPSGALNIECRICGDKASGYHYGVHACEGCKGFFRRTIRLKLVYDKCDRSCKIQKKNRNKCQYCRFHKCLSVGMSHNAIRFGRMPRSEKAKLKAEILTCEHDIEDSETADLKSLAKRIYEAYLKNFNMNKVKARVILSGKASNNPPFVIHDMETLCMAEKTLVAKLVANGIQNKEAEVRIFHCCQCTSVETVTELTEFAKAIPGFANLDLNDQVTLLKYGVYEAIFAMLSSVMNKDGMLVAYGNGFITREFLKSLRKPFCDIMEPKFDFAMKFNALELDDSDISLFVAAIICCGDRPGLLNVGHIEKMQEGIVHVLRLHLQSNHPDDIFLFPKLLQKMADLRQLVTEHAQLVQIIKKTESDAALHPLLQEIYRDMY
RUN DESCRIPTION: Scintillation Proximity Assay (SPA), displacement of 3H labeled GW2331
Format: binding
PARTICULARS: 3H GW2331 displacement, read-out: PPAR-alpha Ki
pKi: −log10 of the molar value.
Please enter condition met where pKi is greater than or equal to 5, and condition not met where it is lower.

{"COMPOUND": "COc1ccc(-c2ccc(CCOc3ccc(CC4(C(=O)O)CCC4)cc3)cc2)cc1 [Example C-06]", "ASSIGNED CATEGORY": "condition not met"}
{"COMPOUND": "COC(C)(Cc1ccc(OCCc2ccc(OC(F)(F)F)cc2)nc1)C(=O)O [Example D-41]", "ASSIGNED CATEGORY": "condition met"}
{"COMPOUND": "CCOC(Cc1ccc(OCCc2ccc(OS(=O)(=O)CC)cc2)nc1)C(=O)O [Example D-18]", "ASSIGNED CATEGORY": "condition met"}
{"COMPOUND": "Cc1oc(-c2cccc(Cl)c2)nc1CCOc1ccc(CC2(C(=O)O)CCCO2)cc1 (stereo not drawn) [Example C-86]", "ASSIGNED CATEGORY": "condition met"}
